# credit: patent US20110143948A1

Test system: ncRNAs (SEQ ID NO 28-89)
test-name: ncRNA arrays of melanocytes, keratinocytes, normal skin, melanoma cell lines and patient samples
Parameters: species or system human
condition-parameters: melanoma patient 19 sample compared to normal skin
result-type: ncRNA array expression, patient 19
Answer field: number only, no words.

// query Field request: ncRNA array expression, patient 19 | item: SEQ ID NO 81 (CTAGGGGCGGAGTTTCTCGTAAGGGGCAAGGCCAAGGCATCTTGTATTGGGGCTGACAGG; listed as DNA, chemistry not given here; listed as Homo sapiens)
// result −2.079

// query Field request: ncRNA array expression, patient 19 | item: SEQ ID NO 75 (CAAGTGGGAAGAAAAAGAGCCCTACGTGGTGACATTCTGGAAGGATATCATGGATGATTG; listed as DNA, chemistry not given here; listed as Homo sapiens)
// result 1.219

// query Field request: ncRNA array expression, patient 19 | item: SEQ ID NO 31 (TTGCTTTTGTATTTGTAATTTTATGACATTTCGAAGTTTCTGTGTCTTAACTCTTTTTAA; listed as DNA, chemistry not given here; listed as Homo sapiens)
// result 2.105

----------
Test system: ncRNAs (SEQ ID NO 28-89)
test-name: ncRNA arrays of melanocytes, keratinocytes, normal skin, melanoma cell lines and patient samples
Design: species or system human
condition-parameters: melanoma patient 3 sample compared to normal skin
What ncRNA array expression, patient 3 was measured for each of the following?
Answer field: number only, no words.

// query Field request: ncRNA array expression, patient 3 | item: SEQ ID NO 53 (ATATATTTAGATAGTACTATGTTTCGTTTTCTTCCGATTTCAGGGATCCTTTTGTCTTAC; listed as DNA, chemistry not given here; listed as Homo sapiens)
// result −2.306

// query Field request: ncRNA array expression, patient 3 | item: SEQ ID NO 58 (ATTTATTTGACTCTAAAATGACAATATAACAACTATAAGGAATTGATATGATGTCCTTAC; listed as DNA, chemistry not given here; listed as Homo sapiens)
// result −1.723

// query Field request: ncRNA array expression, patient 3 | item: SEQ ID NO 47 (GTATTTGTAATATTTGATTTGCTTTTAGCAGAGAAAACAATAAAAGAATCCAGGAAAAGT; listed as DNA, chemistry not given here; listed as Homo sapiens)
// result −2.494

// query Field request: ncRNA array expression, patient 3 | item: SEQ ID NO 46 (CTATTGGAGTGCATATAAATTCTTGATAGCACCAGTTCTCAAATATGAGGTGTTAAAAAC; listed as DNA, chemistry not given here; listed as Homo sapiens)
// result 0.6718

// query Field request: ncRNA array expression, patient 3 | item: SEQ ID NO 71 (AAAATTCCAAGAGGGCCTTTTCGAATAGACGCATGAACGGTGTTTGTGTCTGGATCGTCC; listed as DNA, chemistry not given here; listed as Homo sapiens)
// result 0.6126

----------
What ncRNA array expression, patient 25 was measured for each of the following?
Tested on: ncRNAs (SEQ ID NO 28-89)
test-name: ncRNA arrays of melanocytes, keratinocytes, normal skin, melanoma cell lines and patient samples
Parameters: species or system human
condition-parameters: melanoma patient 25 sample compared to normal skin

// query Field request: ncRNA array expression, patient 25 | item: SEQ ID NO 32 (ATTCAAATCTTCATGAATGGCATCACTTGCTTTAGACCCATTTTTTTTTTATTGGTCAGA; DNA, backbone and methylation of C not given here; listed as Homo sapiens)
// result 4.072

// query Field request: ncRNA array expression, patient 25 | item: SEQ ID NO 74 (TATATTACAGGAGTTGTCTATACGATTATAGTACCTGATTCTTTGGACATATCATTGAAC; listed as DNA, chemistry not given here; listed as Homo sapiens)
// result 2.599

// query Field request: ncRNA array expression, patient 25 | item: SEQ ID NO 55 (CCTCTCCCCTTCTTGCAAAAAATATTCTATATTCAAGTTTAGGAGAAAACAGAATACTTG; listed as DNA, chemistry not given here; listed as Homo sapiens)
// result −2.11
